test method notes: protein stability index of a GFP-peptide fusion (yeast GPS) (PSI 1-4); higher = more stable; sorted into four equal gates, so the index is relative within each strain
run parameters: ubr1∆
endpoint: protein stability index

Name the reported protein stability index value associated with the sequence KVISEILTREVQNSTLA [RPS1B]
2.32

Do the same for QLKTGLAAIVSTVIEEF [YGL172W/NUP49] please
3.04

Do the same for NTTTRVIPQVEVGNRKH [SNF5] please
2.62

Do the same for AKINEVYNNSKDEYLAQ [NSL1] please
2.75

Do the same for FFLRDTLLWNKNDKLIK [SNF5] please
2.42

Do the same for NITKNLKTFNGSLALLK [POP4] please
3.13

Do the same for ILKEEFPKIDSLAQNDC [RPN5] please
3.38

Do the same for AFGSSATDISGELRDYI [YJR042W/NUP85] please
3.28

Do the same for YKATATGPKQQEITTNL [SCL1] please
3.29

Do the same for KFFQKKIHLYEKKLEDY [YGL172W/NUP49] please
2.94

Do the same for LPQSEWKAPSSIVLDSE [DIS3] please
3.15

Do the same for LQPPKTSSRGRDHKSYS [SMC4] please
2.86

Do the same for NNNQKIDDNYIVVVIEI [SRB8] please
3.11

Do the same for YSRSVDKEWVFAALSDS [SSN2] please
1.3

Source listed as the supplement of paper PMC9732359.
